Where do the numbers come from? From paper PMC5366330.

TESTED_SYSTEM: MtLAP (leucine aminopeptidase of M. tuberculosis, Rv2213) (Mycobacterium tuberculosis, UniProt P9WHT3)
Sequence (P9WHT3 whole entry, looked up): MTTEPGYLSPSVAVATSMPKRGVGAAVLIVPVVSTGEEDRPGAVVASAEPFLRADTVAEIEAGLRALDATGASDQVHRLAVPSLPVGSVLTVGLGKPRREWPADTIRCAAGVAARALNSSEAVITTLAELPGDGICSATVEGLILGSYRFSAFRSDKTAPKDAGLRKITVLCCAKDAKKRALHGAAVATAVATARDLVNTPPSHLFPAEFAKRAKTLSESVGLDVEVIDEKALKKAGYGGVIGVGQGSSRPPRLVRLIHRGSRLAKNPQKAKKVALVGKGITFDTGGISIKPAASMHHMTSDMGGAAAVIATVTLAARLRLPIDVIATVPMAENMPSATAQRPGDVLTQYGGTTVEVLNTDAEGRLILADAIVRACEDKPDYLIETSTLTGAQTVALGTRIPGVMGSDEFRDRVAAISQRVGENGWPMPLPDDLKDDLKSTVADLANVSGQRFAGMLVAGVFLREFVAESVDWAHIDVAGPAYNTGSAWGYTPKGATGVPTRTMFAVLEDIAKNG
pIC50: −log10 of the molar value.

- COMPOUND: "CC(C)C[C@H](NC(=O)[C@@H](O)[C@H](N)Cc1ccccc1)C(=O)O [bestatin]"
  pIC50: 7.27
